B1: library; a variant is named by its letters at X, in order (parent)
chain: MNIQIGELAKRTACPVVTIRFYEQEGLLPPPGRSRGNFRLYGEEHVERLQFIRHCRSLDMPLSXVRTLLSYRKRPDQDCGEVXMLLDEHXRQVESRIGALLELXHXLVELREACSGARPAQSCGILQGLSDCVCDTRGTTAHXSD

- Variants of: B1
- protocol text: sfGFP reporter fluorescence (15 h) (µM FITC); higher = higher leak
- conditions: library round: Round 3b; ligand: none
value kind: sfGFP reporter fluorescence
Number only, please.

variant identifier	value kind	result
KFAVER	sfGFP reporter fluorescence	0.0512
KIIVAT	sfGFP reporter fluorescence	0.0506

Could you now consider this next variant?
Asked: Could you share which sfGFP reporter fluorescence value was measured for KFITHT ?
Given back: 0.0512
